IC50 values by entry
# testedOn: Human CCR3 (Homo sapiens)
# Construct: The cloned CCR3 cDNA was constructed with pcDNA3 vector and transfected into a IC562 cell line; expressed in transfected cells
# Sequence (P51677 1-355): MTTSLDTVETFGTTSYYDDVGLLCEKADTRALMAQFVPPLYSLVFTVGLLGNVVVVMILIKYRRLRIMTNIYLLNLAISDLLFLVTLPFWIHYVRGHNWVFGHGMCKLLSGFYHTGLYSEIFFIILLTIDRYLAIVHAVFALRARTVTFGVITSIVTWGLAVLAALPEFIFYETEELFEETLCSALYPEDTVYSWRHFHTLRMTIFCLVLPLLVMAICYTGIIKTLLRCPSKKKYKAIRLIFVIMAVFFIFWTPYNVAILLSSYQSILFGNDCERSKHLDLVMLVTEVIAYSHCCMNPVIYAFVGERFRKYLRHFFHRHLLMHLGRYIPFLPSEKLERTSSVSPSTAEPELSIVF
# assayRemarks: Receptor binding assay (RBA), [125I]-eotaxin
# measurementContext: human CCR3-transformed K562 cells, 0.1 nM [125I]-eotaxin; compounds of about 40 to 90% purity; read-out: Activity grade RBA (IC50 class)

Example entries begin here.
# smilesRepr, observable, valueMeasured
measured = [
    ("Cc1ccc(C(=O)Nc2ccc(Oc3cc(C)cc(C)c3)c(S(=O)(=O)N3CCNCC3)c2)cc1", "IC50", "> 10 µM"),
    ("COc1ccccc1Oc1ccc([N+](=O)[O-])cc1S(=O)(=O)N1CCNCC1.Cl", "IC50", "< 1 µM"),
    ("Cl.O=S(=O)(c1cc(Cl)ccc1Oc1cc(Cl)cc(Cl)c1)N1CCNCC1", "IC50", "< 1 µM"),
]

Lookup: Supply IC50 value. Item: `Cc1ccc(C)c(Oc2ccc([N+](=O)[O-])cc2S(=O)(=O)N2CCNCC2)c1C.Cl`
Found: 1 to 10 µM

The measurements presented in this section are drawn from patent US8242118B2.
